As shown below, each of these molecules has a reported IC50 value.
experimental.system: Adrenergic receptor alpha-2 (Rattus norvegicus, UniProt P22086+P19328+P22909)
assay.notes: 50% inhibition of specific [3H]clonidine binding (0.4 nM) to Alpha-2 adrenergic receptors in rat isolated brain membranes
Type: cell membranes, Membrane
Structures can show the parent of a compound that is named as a salt.
Report the value in nM with no unit label.

Examples from the recorded data:
molecule	IC50 [nM]
CCCN(CCC)C1CCc2ccc(O)cc2C1 (stereo not drawn)	1200
CCCN(CCC)C1CCc2c(O)cccc2C1 (stereo not drawn) [5-OH-DPAT]	850
N=C(N)N/N=C/c1c(Cl)cccc1Cl [GUANABENZ]	1.7
CCCN(CCC)C1CCc2cc(O)c(O)cc2C1 (stereo not drawn)	87

Query: Query the reported IC50 for Adrenergic receptor alpha-2 (Rattus norvegicus, UniProt P22086+P19328+P22909); item: COc1ccc(OC)c(C(O)C(C)N)c1 (stereo not drawn) [METHOXAMINE]
Reply: 3600

Query: Recorded IC50 for CNCC(O)c1cccc(NS(C)(=O)=O)c1 (stereo not drawn) [AMIDEPHRINE MESYLATE] with Adrenergic receptor alpha-2 (Rattus norvegicus, UniProt P22086+P19328+P22909), please?
Reply: 1900

Query: Query IC50 on Adrenergic receptor alpha-2 (Rattus norvegicus, UniProt P22086+P19328+P22909) for CCCN(CCC)C1CCc2c(ccc(O)c2O)C1 (stereo not drawn)
Reply: 80

Query: Hi! What's the reported IC50 for CN(C)C1CCc2c(ccc(O)c2O)C1 (stereo not drawn) on Adrenergic receptor alpha-2 (Rattus norvegicus, UniProt P22086+P19328+P22909)?
Reply: 17

---

Below is a list of entries, each paired with its recorded log10(IC50) value.
experimental.system: Adrenergic receptor alpha-1 (Rattus norvegicus, UniProt P15823+P23944+P43140)
assay.notes: Binding affinity against alpha-1 adrenergic receptor is the ability to inhibit the specific [3H]prazosin binding (0.2 nM) to rat isolated brain membranes by 50% was reported.
Where a name gives a salt, the structure may show the parent alone.
Remember, log10 of IC50, in µM.

Example cases with answers are listed next.
compound	value.observed
Oc1ccc(NC2=NCCN2)cc1O	0.71
FC(F)(F)c1ccc(Cl)c(NC2=NCCN2)c1	-0.33
CCCN(CCC)C1CCc2c(ccc(O)c2O)C1 (centres undefined)	1.18

Query: What value of measured log10(IC50) is listed for CNCC(O)c1cccc(NS(C)(=O)=O)c1 (centres undefined) [AMIDEPHRINE MESYLATE] ?
Reply: 1.60

Query: Name the reported log10(IC50) value associated with the compound CCCN(CCC)C1CCc2c(O)cccc2C1 (centres undefined)
Reply: 1.26

Query: Look at this compound and give its reported log10(IC50). COc1ccc(OC)c(C(O)C(C)N)c1 (centres undefined)
Reply: 2.23

Query: For CN(C)C1CCc2c(ccc(O)c2O)C1 (centres undefined) , what is its reported log10(IC50)?
Reply: 1.59

Query: Would you kindly share the measured log10(IC50) for CCCN(CCC)C1CCc2ccc(O)cc2C1 (centres undefined) ?
Reply: 1.26

Query: Recorded log10(IC50) of CCCN(CCC)C1CCc2cc(O)c(O)cc2C1 (centres undefined) , please.
Reply: 1.38
